# targetEntity: T1, human mesothelin recombinant protein (human, UniProt Q13421 296-580, limits assumed)
# T1 construct: also called mesothelin protein; MSLN
# T1 sequence (Q13421 other isoform, or with tags, fused parts or gaps limits assumed): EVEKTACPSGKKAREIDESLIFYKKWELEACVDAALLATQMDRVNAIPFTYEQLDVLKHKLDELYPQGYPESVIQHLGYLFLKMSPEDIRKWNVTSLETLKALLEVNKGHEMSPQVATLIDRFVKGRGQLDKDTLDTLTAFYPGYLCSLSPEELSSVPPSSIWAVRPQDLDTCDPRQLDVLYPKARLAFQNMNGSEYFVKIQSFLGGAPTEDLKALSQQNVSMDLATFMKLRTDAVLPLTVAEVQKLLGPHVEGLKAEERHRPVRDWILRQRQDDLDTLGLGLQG
# protocolSummary: ELISA, plate coated with mesothelin at 1 ug/mL, detection with anti-human Kappa light chains
pKd: −log10 of the molar value.
Listed here: items and their measured pKd.
measurementType: pKd

[[record]]
binder = "humanized antibody HuSS1 (DCBPR2002) (antibody, V domains shown, also called HuSS1-HH; HuSS1 (HH)) VH: QVQLVQSGAEVKKPGASVKVSCKASGYSFTGYTMNWVRQAPGQGLEWMGLITPYNGASSYNQKFRGRVTMTRDTSISTAYMELSRLRSDDTAVYYCARGGYDGRGFDYWGQGTLVTVSS VL: EIVLTQSPATLSLSPGERATLSCSASSSVSYMHWYQQKPGQAPRLLIYDTSKLASGIPARFSGSGSGTDFTLTISSLEPEDFAVYYCQQWSKHPLTFGQGTKVEIKR"
resultnumber = 10.03

[[record]]
binder = "DCBPR2002-4(DBCO-vc-seco-DUBA) (other, DBCO-vc-seco DUBA linked through GlcNAz to the tri-mannosyl N-glycan of the heavy chain constant region; 4 per antibody (DAR ~4)) VH: QVQLVQSGAEVKKPGASVKVSCKASGYSFTGYTMNWVRQAPGQGLEWMGLITPYNGASSYNQKFRGRVTMTRDTSISTAYMELSRLRSDDTAVYYCARGGYDGRGFDYWGQGTLVTVSS VL: EIVLTQSPATLSLSPGERATLSCSASSSVSYMHWYQQKPGQAPRLLIYDTSKLASGIPARFSGSGSGTDFTLTISSLEPEDFAVYYCQQWSKHPLTFGQGTKVEIKR"
resultnumber = 10.01

[[record]]
binder = "DCBPR2002-2(DBCO-vc-seco-DUBA)-2(DBCO-s-DM1) (other, DBCO-vc-seco DUBA (2 per antibody) and DBCO-S-DM1 (2 per antibody) linked through GlcNAz to the tri-mannosyl N-glycan of the heavy chain constant region (DAR ~4)) VH: QVQLVQSGAEVKKPGASVKVSCKASGYSFTGYTMNWVRQAPGQGLEWMGLITPYNGASSYNQKFRGRVTMTRDTSISTAYMELSRLRSDDTAVYYCARGGYDGRGFDYWGQGTLVTVSS VL: EIVLTQSPATLSLSPGERATLSCSASSSVSYMHWYQQKPGQAPRLLIYDTSKLASGIPARFSGSGSGTDFTLTISSLEPEDFAVYYCQQWSKHPLTFGQGTKVEIKR"
resultnumber = 10.14

[[record]]
binder = "DCBPR2002-4(DBCO-vc-MMAE) (other, DBCO-vc-MMAE linked through GlcNAz to the tri-mannosyl N-glycan of the heavy chain constant region; 4 per antibody (DAR 3.89 by LC-MS)) VH: QVQLVQSGAEVKKPGASVKVSCKASGYSFTGYTMNWVRQAPGQGLEWMGLITPYNGASSYNQKFRGRVTMTRDTSISTAYMELSRLRSDDTAVYYCARGGYDGRGFDYWGQGTLVTVSS VL: EIVLTQSPATLSLSPGERATLSCSASSSVSYMHWYQQKPGQAPRLLIYDTSKLASGIPARFSGSGSGTDFTLTISSLEPEDFAVYYCQQWSKHPLTFGQGTKVEIKR"
resultnumber = 9.88

[[record]]
binder = "DCBPR2002-2(DBCO-vc-MMAE)-2(DBCO-vc-seco-DUBA) (other, DBCO-vc-MMAE (2 per antibody) and DBCO-vc-seco DUBA (2 per antibody) linked through GlcNAz to the tri-mannosyl N-glycan of the heavy chain constant region (DAR ~4)) VH: QVQLVQSGAEVKKPGASVKVSCKASGYSFTGYTMNWVRQAPGQGLEWMGLITPYNGASSYNQKFRGRVTMTRDTSISTAYMELSRLRSDDTAVYYCARGGYDGRGFDYWGQGTLVTVSS VL: EIVLTQSPATLSLSPGERATLSCSASSSVSYMHWYQQKPGQAPRLLIYDTSKLASGIPARFSGSGSGTDFTLTISSLEPEDFAVYYCQQWSKHPLTFGQGTKVEIKR"
resultnumber = 9.80

[[record]]
binder = "DCBPR2002-4(DBCO-s-DM1) (other, DBCO-S-DM1 linked through GlcNAz to the tri-mannosyl N-glycan of the heavy chain constant region; 4 per antibody (DAR ~4)) VH: QVQLVQSGAEVKKPGASVKVSCKASGYSFTGYTMNWVRQAPGQGLEWMGLITPYNGASSYNQKFRGRVTMTRDTSISTAYMELSRLRSDDTAVYYCARGGYDGRGFDYWGQGTLVTVSS VL: EIVLTQSPATLSLSPGERATLSCSASSSVSYMHWYQQKPGQAPRLLIYDTSKLASGIPARFSGSGSGTDFTLTISSLEPEDFAVYYCQQWSKHPLTFGQGTKVEIKR"
resultnumber = 9.84

[[record]]
binder = "DCBPR2002-2(DBCO-vc-MMAE)-2(DBCO-s-DM1) (other, DBCO-vc-MMAE (2 per antibody) and DBCO-S-DM1 (2 per antibody) linked through GlcNAz to the tri-mannosyl N-glycan of the heavy chain constant region (DAR ~4)) VH: QVQLVQSGAEVKKPGASVKVSCKASGYSFTGYTMNWVRQAPGQGLEWMGLITPYNGASSYNQKFRGRVTMTRDTSISTAYMELSRLRSDDTAVYYCARGGYDGRGFDYWGQGTLVTVSS VL: EIVLTQSPATLSLSPGERATLSCSASSSVSYMHWYQQKPGQAPRLLIYDTSKLASGIPARFSGSGSGTDFTLTISSLEPEDFAVYYCQQWSKHPLTFGQGTKVEIKR"
resultnumber = 9.87

